Biological target: MGAT2 Human (Homo sapiens (Human), UniProt Q3SYC2)
Sequence (Q3SYC2 whole entry): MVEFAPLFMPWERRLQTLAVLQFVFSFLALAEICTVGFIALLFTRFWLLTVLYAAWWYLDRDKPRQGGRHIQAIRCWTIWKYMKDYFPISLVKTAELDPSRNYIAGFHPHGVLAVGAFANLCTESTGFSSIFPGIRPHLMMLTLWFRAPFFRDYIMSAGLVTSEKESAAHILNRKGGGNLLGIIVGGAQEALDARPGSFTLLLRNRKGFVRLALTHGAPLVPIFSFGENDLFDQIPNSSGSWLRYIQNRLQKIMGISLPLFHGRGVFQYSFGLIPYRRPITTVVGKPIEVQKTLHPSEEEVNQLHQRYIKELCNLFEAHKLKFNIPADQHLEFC
pIC50: −log10 of the molar value.
Classification field: enter rule met for pIC50 values not below 8, rule not met for values below it.

COCCOc1ccc([C@@H](C)N2CCc3ccc(S(=O)(=O)Nc4cnc(C5CC5)cn4)cc3C2)cn1 [Example 48, 2,2,2-trifluoroacetate]
rule not met
C[C@H](c1cc(F)cc(F)c1)N1CCc2ccc(S(=O)(=O)Nc3nc(C(=O)N(C)C)no3)cc2C1
rule met
C[C@H](c1cc(F)cc(F)c1)N1CCc2ccc(S(=O)(=O)Nc3nc(C(N)=O)no3)cc2C1
rule not met

###

Observed pIC50, system MGAT2 Human (Homo sapiens (Human), UniProt Q3SYC2).
pIC50: −log10 of the molar value.
READOUT_LABEL: pIC50

Cc1c(NS(=O)(=O)c2ccc3c(c2)CN([C@H](C)c2ccc(OCC(F)(F)F)cc2)CC3)noc1C(C)(C)C [Example 29, 2,2,2-trifluoroacetate]
8.02
CCCc1cnc(NS(=O)(=O)c2ccc3c(c2)CN([C@H](C)c2ccc(OCC(F)(F)F)nc2)CC3)cn1 [Example 45, 2,2,2-trifluoroacetate]
8.14
CNC(=O)c1c(NS(=O)(=O)c2ccc3c(c2)CN([C@H](C)c2cc(F)cc(F)c2)CC3)noc1C(C)(C)C
8.21
CC(C)Nc1cnc(NS(=O)(=O)c2ccc3c(c2)CN([C@H](C)c2ccc(OCC(F)(F)F)nc2)CC3)cn1 [Example 47, 2,2,2-trifluoroacetate]
7.86
Cc1c(NS(=O)(=O)c2ccc3c(c2)CN(C(=O)c2ccc(OCC(F)(F)F)nc2)CC3)noc1C(C)(C)C
7.39
Cc1c(NS(=O)(=O)c2ccc3c(c2)CN(Cc2ccc(OCC(F)(F)F)nc2)CC3)noc1C(C)(C)C
7.96

###

Target: MGAT2 Human (Homo sapiens (Human), UniProt Q3SYC2)
READOUT_LABEL: IC50 (µM)

COCCOc1ccc(C(=O)N2CCc3ccc(S(=O)(=O)Nc4noc(C(C)(C)C)c4C)cc3C2)cn1
0.031
Cc1c(NS(=O)(=O)c2ccc3c(c2)CN(Cc2cnc(SCC(F)(F)F)nc2)CC3)noc1C(C)(C)C
0.0058
CCNC(=O)c1noc(NS(=O)(=O)c2ccc3c(c2)CN([C@H](C)c2cc(F)cc(F)c2)CC3)n1
0.0071
CCCc1ccc(CN2CCc3ccc(S(=O)(=O)Nc4noc(C(C)(C)C)c4Br)cc3C2)cn1
0.0068
Cc1onc(NS(=O)(=O)c2ccc3c(c2)CN([C@H](C)c2ccc(OCC(F)(F)F)nc2)CC3)c1-c1cnn(C)c1
0.024
CCSc1ncc([C@@H](C)N2CCc3ccc(S(=O)(=O)Nc4cc(C(C)(C)C)on4)cc3C2)cn1
0.011
CC(C)(C)c1onc(NS(=O)(=O)c2ccc3c(c2)CN(Cc2ccc(OCC(F)(F)F)nc2)CC3)c1F
0.016

###

Target: UniProt:Q3SYC2
IC50: recorded values
READOUT_LABEL: IC50

CC(C)c1nc(NS(=O)(=O)c2ccc3c(c2)CN([C@H](C)c2ccc(OCC(F)(F)F)nc2)CC3)no1
13 nM
Cc1c(NS(=O)(=O)c2ccc3c(c2)CN([C@H](C)c2cnc(OCC(F)F)cn2)CC3)noc1C(C)(C)C [Example 25, 2,2,2-trifluoroacetate]
4.6 nM
CCc1ccc(CN2CCc3ccc(S(=O)(=O)Nc4noc(C(C)(C)C)c4CC)cc3C2)cn1
15 nM
COCCOc1ccc([C@@H](C)N2CCc3ccc(S(=O)(=O)Nc4cc(C(C)(C)C)on4)cc3C2)cn1 [Example 31, 2,2,2-trifluoroacetate]
17.2 nM

###

Quick record of log10 IC50 values for MGAT2 Human (Homo sapiens (Human)).
Where a name gives a salt, the structure may show the parent alone.
READOUT_LABEL: log10 IC50 (log10 of the value in nM)

C[C@H](c1cc(F)cc(F)c1)N1CCc2ccc(S(=O)(=O)Nc3nc(C(=O)NCC(F)(F)F)no3)cc2C1
1.20
C[C@H](c1ccc(OCC(F)F)nc1)N1CCc2ccc(S(=O)(=O)Nc3cc(C(C)(C)C)on3)cc2C1
0.81
CC(C)(C)c1onc(NS(=O)(=O)c2cnc3c(c2)CN(Cc2cc(F)cc(F)c2)CC3)c1Br [Example 44, Trifluoroacetate]
2.07
CCCc1c(NS(=O)(=O)c2ccc3c(c2)CN(Cc2ccc(CC)nc2)CC3)noc1C(C)(C)C
1.04
Cc1c(NS(=O)(=O)c2ccc3c(c2)CN([C@H](C)c2ccc(OCC4CC(F)(F)C4)nc2)CC3)noc1C(C)(C)C [Example 28, 2,2,2-trifluoroacetate]
0.93
C[C@H](c1ccc(OCC(F)(F)F)nc1)N1CCc2ccc(S(=O)(=O)Nc3noc(C(C)(C)C)c3Cl)cc2C1
1.20
C/C=C/c1c(NS(=O)(=O)c2ccc3c(c2)CN(Cc2cnc(OCC(F)(F)F)s2)CC3)noc1C(C)(C)C
0.59

###

Parameter IC50, tested on MGAT2 Human (Homo sapiens (Human), UniProt Q3SYC2), listed per item.
READOUT_LABEL: IC50 (nM)

C[C@H](c1ccc(OCC2CC(F)(F)C2)nc1)N1CCc2ccc(S(=O)(=O)Nc3noc(C4CC4)n3)cc2C1 [Example 26, 2,2,2-trifluoroacetate]
20
C[C@H](c1cc(F)cc(F)c1)N1CCc2ccc(S(=O)(=O)Nc3nc(C(=O)N4CCC4)no3)cc2C1 [Example 55]
3.7
C[C@H](c1ccc(OCC(F)(F)F)nc1)N1CCc2ccc(S(=O)(=O)Nc3noc(C(C)(C)C)c3CO)cc2C1 [Example 32, 2,2,2-trifluoroacetate]
19.8
C[C@H](c1cnc(OCC(F)F)cn1)N1CCc2ccc(S(=O)(=O)Nc3noc(C4CC4)n3)cc2C1 [Example 24, 2,2,2-trifluoroacetate]
19.7
C[C@H](c1ccc(OCC(F)(F)F)nc1)N1CCc2ccc(S(=O)(=O)Nc3ccc(C(C)(C)C)nn3)cc2C1 [Example 50, 2,2,2-trifluoroacetate]
3.8
CCOC(=O)c1c(NS(=O)(=O)c2ccc3c(c2)CN([C@H](C)c2cc(F)cc(F)c2)CC3)noc1C(C)(C)C [Example 33]
3.7

###

Quick record: IC50, MGAT2 Human (Homo sapiens (Human), UniProt Q3SYC2).
READOUT_LABEL: IC50 (nM)

CCCc1cnc(NS(=O)(=O)c2ccc3c(c2)CN([C@H](C)c2cc(F)cc(F)c2)CC3)cn1
6
CCc1cnc(NS(=O)(=O)c2ccc3c(c2)CN([C@H](C)c2ccc(OCC(F)F)nc2)CC3)cn1 [Example 46, 2,2,2-trifluoroacetate]
12.7
C[C@H](c1ccc(OCC(F)F)nc1)N1CCc2ccc(S(=O)(=O)Nc3noc(C4CC4)n3)cc2C1 [Example 23, 2,2,2-trifluoroacetate]
8.2
C[C@H](c1ccc(OCC(F)(F)F)nc1)N1CCc2ccc(S(=O)(=O)Nc3cc(C(C)(C)C)on3)cc2C1
11
